system: p-ERK in SK-MEL-31 cells; test: SK-MEL-31 p-ERK cellular assay; assay type: cell-based; conditions: Homo sapiens, 1.25 h, SK-MEL-31, 75 min, with EGF stimulation; read-out: EC50, reduction of p-ERK
pEC50: −log10 of the molar value.

- structure.as.smiles: "COc1ccc2c(Nc3cc(NC(=O)c4cccc(C(C)(C)C#N)c4)ccc3C)ncnc2c1"
  pEC50: 7.28

###

molecular target: IGF1R (Homo sapiens, UniProt P08069)

- structure.as.smiles: "COc1ccc2c(Nc3cc(NC(=O)c4cccc(C(C)(C)C#N)c4)ccc3C)ncnc2c1"
  target.or.system: "IGF1R (Homo sapiens, UniProt P08069)"
  IC50: "> 10 µM"

###

molecular target: CDK4 (Homo sapiens, UniProt P11802); experiment: AlphaScreen kinase assay (Rb peptide); type: biochemical; settings: ATP Km
Sequence (P11802 whole entry, species assumed): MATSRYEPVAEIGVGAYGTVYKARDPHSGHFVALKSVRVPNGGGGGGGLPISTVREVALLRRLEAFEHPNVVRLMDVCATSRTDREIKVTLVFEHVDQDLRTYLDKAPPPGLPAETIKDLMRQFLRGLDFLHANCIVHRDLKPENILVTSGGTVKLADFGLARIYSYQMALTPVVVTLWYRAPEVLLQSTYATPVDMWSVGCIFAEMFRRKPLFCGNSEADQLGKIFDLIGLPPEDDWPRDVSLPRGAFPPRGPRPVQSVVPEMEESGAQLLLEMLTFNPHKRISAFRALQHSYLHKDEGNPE
Sequence (P24385 whole entry partner, species assumed): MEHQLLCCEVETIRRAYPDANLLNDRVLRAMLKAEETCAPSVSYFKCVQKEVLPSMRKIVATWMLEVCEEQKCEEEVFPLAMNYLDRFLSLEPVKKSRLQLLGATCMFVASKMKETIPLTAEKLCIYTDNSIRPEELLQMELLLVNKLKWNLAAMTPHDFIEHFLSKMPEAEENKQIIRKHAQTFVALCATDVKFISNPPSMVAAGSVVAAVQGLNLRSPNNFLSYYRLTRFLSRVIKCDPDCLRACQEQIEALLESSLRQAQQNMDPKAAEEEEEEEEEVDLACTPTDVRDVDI

- structure.as.smiles: "COc1ccc2c(Nc3cc(NC(=O)c4cccc(C(C)(C)C#N)c4)ccc3C)ncnc2c1"
  IC50: "> 10 µM"

###

biological target: BRAF (Homo sapiens)
Sequence (P15056 457-717 limits assumed): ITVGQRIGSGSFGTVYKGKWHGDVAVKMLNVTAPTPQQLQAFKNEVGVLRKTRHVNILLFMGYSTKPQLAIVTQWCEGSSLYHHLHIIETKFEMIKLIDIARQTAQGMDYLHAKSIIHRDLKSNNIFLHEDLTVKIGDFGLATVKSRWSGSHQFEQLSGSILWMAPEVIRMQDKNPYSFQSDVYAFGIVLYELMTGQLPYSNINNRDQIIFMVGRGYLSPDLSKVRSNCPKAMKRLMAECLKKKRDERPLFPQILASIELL
measured.parameter: IC50 (nM)

- structure.as.smiles: "COc1ccc2c(Nc3cc(NC(=O)c4cccc(C(C)(C)C#N)c4)ccc3C)ncnc2c1"
  numeric.value: 79

###

biological target: SRC (Homo sapiens)
Sequence (P12931 whole entry, species assumed): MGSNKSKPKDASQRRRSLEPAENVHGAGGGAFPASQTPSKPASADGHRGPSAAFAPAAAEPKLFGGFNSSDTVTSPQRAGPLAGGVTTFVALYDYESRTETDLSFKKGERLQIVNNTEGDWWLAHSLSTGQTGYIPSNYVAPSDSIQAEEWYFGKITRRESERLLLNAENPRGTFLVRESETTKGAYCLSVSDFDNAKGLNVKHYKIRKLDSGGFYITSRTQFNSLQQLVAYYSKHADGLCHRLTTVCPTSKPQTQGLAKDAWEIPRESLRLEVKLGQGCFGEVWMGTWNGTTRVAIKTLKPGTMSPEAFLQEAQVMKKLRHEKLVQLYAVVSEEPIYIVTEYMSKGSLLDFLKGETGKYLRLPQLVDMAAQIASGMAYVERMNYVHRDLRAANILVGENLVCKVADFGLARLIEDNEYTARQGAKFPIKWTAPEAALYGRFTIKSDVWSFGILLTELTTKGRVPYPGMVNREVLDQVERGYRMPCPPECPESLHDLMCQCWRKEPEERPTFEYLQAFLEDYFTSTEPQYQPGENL

- structure.as.smiles: "COc1ccc2c(Nc3cc(NC(=O)c4cccc(C(C)(C)C#N)c4)ccc3C)ncnc2c1"
  IC50: "> 10 µM"

###

biological target: p38 (Homo sapiens, UniProt Q16539); test: 33P-ATP filter binding kinase assay (MBP phosphorylation); format: biochemical; conditions: ATP Km
Sequence (Q16539 whole entry): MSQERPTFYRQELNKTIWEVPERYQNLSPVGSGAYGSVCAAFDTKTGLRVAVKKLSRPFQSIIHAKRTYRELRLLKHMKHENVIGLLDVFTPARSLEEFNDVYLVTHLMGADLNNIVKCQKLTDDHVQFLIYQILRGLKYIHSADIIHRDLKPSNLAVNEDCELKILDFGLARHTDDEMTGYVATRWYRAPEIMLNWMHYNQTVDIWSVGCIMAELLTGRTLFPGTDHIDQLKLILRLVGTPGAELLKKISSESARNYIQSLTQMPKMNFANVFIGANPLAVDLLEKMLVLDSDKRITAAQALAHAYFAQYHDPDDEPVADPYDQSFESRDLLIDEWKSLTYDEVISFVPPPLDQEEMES

- structure.as.smiles: "COc1ccc2c(Nc3cc(NC(=O)c4cccc(C(C)(C)C#N)c4)ccc3C)ncnc2c1"
  target.or.system: "p38 (Homo sapiens, UniProt Q16539)"
  IC50 (nM): 6

###

target: UniProt P00533
Sequence (P00533 25-1210, species assumed): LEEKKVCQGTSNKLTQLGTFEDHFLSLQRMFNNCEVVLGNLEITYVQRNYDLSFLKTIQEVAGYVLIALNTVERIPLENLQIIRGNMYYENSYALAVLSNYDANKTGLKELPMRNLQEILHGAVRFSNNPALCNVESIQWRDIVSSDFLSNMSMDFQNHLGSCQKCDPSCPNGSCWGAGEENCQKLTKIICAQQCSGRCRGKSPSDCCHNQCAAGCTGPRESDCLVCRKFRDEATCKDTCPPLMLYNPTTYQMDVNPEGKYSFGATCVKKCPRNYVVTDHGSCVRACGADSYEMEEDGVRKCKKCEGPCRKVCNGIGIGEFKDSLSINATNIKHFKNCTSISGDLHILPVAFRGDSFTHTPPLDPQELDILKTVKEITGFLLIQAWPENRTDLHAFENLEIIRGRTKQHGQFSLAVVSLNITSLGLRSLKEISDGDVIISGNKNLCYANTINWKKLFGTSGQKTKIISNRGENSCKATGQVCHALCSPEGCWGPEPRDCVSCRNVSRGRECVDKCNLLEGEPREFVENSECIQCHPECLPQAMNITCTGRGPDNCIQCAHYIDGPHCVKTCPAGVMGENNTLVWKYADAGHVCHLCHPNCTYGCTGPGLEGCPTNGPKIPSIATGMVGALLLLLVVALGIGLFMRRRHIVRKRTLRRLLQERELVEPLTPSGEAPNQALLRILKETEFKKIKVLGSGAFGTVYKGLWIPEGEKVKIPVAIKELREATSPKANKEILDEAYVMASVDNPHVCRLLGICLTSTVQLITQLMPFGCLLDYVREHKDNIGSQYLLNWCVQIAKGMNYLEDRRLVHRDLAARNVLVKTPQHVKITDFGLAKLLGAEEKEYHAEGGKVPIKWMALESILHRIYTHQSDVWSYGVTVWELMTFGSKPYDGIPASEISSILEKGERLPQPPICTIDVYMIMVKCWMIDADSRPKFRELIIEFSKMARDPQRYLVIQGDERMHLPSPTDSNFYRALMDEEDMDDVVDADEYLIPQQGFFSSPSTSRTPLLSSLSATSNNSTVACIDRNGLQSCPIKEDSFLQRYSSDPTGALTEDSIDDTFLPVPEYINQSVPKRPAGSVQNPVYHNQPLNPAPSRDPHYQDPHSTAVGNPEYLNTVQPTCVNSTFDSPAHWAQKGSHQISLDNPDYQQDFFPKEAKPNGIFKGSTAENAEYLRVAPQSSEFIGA
pIC50: −log10 of the molar value.
measured.parameter: pIC50

- structure.as.smiles: "COc1ccc2c(Nc3cc(NC(=O)c4cccc(C(C)(C)C#N)c4)ccc3C)ncnc2c1"
  measured.parameter: "pIC50"
  result: "< 5.00"

###

molecular target: FGFR (Homo sapiens, UniProt P11362)
Sequence (P11362 22-822): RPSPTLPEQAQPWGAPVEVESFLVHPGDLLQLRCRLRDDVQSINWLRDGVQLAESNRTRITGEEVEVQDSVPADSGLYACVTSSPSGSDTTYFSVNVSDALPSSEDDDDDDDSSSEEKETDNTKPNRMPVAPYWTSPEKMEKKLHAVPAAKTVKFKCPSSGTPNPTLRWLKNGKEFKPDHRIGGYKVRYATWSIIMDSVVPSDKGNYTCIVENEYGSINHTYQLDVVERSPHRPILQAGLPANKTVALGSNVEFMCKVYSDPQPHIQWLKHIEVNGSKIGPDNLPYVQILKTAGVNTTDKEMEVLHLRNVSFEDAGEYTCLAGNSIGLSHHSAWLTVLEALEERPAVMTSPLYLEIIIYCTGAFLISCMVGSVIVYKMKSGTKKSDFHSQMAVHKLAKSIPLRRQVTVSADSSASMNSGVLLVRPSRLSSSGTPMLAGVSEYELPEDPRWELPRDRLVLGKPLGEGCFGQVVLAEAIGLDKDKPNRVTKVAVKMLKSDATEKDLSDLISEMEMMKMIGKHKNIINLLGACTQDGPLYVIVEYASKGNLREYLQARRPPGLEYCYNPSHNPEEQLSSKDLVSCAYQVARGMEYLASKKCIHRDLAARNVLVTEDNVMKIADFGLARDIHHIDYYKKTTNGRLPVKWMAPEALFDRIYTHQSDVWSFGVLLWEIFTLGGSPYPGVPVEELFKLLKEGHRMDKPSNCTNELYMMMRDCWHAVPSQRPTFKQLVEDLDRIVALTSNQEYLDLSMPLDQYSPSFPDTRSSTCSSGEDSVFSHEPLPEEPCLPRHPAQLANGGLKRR

- structure.as.smiles: "COc1ccc2c(Nc3cc(NC(=O)c4cccc(C(C)(C)C#N)c4)ccc3C)ncnc2c1"
  IC50: "> 10 µM"

Each recorded value in this set is attributed to paper PMC5988692.
